Measured IC50 values are reported for all entries that follow.
tgt: SARM1 (Homo sapiens, UniProt Q6SZW1)
Construct: cleared cell lysate used without purification
Sequence (Q6SZW1 with tags, fused parts or gaps): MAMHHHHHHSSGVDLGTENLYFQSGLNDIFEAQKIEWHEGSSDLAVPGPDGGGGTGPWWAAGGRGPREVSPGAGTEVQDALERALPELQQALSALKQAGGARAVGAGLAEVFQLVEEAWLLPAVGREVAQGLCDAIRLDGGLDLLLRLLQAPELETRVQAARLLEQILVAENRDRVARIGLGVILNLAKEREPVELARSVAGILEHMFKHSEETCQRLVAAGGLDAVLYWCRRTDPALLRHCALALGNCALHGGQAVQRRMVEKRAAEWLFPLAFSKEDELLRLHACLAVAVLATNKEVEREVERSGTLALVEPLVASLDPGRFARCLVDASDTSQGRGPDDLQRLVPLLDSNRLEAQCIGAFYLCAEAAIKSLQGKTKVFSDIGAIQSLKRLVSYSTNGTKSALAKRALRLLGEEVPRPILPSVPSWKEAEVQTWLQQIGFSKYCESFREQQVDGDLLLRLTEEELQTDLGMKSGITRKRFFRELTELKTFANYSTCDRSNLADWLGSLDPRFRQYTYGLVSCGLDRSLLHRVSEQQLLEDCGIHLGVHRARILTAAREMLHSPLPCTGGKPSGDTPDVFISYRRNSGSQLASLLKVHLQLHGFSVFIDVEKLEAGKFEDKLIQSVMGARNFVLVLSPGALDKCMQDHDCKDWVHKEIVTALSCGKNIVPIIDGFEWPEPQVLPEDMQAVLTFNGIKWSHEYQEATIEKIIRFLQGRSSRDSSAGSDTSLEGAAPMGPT
test_method_notes: ARM-SAM-TIR SARM1 IC50 assay (NADase activity, NAD+ cleavage, RapidFire mass spectrometry)
condition_details: ARM-SAM-TIR lysate 5 μg/mL, 2 h pre-incubation with compound at room temperature, 5 μM NAD+, 2 hr incubation

>  <compound>
O=C(NCc1ccc(Cl)cc1)c1nccc2c(-c3ccncc3)n[nH]c12 [Example 14]

>  <IC50>
< 100 nM

$$$$
>  <compound>
O=C(NCc1ccc(Cl)cc1)c1cccc2c(-c3cncs3)n[nH]c12 [Example 19]

>  <IC50>
> 10000 nM

$$$$
>  <compound>
O=C(NCc1ccc(Cl)s1)c1cccc2c(-c3ccncc3)n[nH]c12 [Example 17]

>  <IC50>
< 100 nM

$$$$
>  <compound>
Cn1cncc1-c1n[nH]c2c(C(=O)NCc3ccc(Cl)cc3)cccc12 [Example 20]

>  <IC50>
> 10000 nM

$$$$
>  <compound>
Cc1ccc(C(=O)NCc2ccc(Cl)nc2)c2[nH]nc(-c3ccncc3)c12 [Example 24]

>  <IC50>
1010 to 5000 nM

$$$$
>  <compound>
O=C(NCc1ccc(Cl)c(F)c1)c1cccc2c(-c3ccncc3)n[nH]c12 [Example 16]

>  <IC50>
< 100 nM

$$$$
>  <compound>
O=C(NCc1ccc(Cl)cc1)c1cccc2c(-c3cnco3)n[nH]c12 [Example 21]

>  <IC50>
> 10000 nM

$$$$
>  <compound>
Cc1cc(C(=O)NCc2ccc(Cl)nc2)c2[nH]nc(-c3ccncc3)c2c1 [Example 25]

>  <IC50>
100 to 1000 nM

$$$$
>  <compound>
O=C(NCc1ccc(Cl)cc1)c1cccc2c(-c3cnc[nH]3)n[nH]c12 [Example 18]

>  <IC50>
> 10000 nM

$$$$
>  <compound>
C[C@@H](NC(=O)c1cccc2c(-c3ccncc3)n[nH]c12)c1ccc(Cl)cc1 [Example 15]

>  <IC50>
100 to 1000 nM

$$$$
